# target: ZIF-ZnF-GAC (serine-finger linker) (artificial)
# Sequence (chain, as listed by the source): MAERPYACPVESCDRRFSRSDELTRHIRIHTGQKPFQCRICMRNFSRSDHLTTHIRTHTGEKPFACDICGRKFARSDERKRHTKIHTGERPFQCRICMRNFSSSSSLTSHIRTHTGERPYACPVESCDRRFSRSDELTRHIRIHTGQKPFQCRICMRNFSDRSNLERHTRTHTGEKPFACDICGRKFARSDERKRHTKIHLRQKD
# assay explanation: EMSA; apparent Kd
# conditions: label: 32P
readout: Kd (pM)
Entry rule: numbers only, all in pM.

Inquiry: Give Kd for bsC (123456, ZM) (dsDNA) DNA 1: GCGGACGCGGCGTGGGCG DNA 2: CGCCCACGCCGCGTCCGC
Reply text: 7

# credit: patent US20030119023
